- TESTED ON: 5-HT2C (Homo sapiens, UniProt P28335)
- Sequence (P28335 33-458): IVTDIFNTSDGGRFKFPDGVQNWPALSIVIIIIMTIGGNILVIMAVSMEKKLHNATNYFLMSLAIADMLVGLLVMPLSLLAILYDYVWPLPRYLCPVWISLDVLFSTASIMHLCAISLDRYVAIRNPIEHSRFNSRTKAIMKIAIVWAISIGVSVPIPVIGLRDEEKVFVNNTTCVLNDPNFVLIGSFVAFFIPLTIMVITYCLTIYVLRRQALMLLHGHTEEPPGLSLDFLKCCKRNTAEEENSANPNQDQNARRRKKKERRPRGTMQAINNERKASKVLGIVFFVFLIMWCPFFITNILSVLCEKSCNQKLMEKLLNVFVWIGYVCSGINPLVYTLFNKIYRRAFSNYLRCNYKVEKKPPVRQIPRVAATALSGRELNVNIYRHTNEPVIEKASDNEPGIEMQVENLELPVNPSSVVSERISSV
- EXPERIMENT DESCRIPTION: BRET Gq dissociation, 5-HT2C
- Assay type: cell-based
- Set-up: expressed in transfected cells; host or cells: HEK293T, transient
- EXPERIMENTAL CONDITIONS: read-out: 5-HT2C Gq Dissociation (BRET) EMAX ± SEM (%5-HT)
Measured Emax, listed per entry for reference.
Supply the numeric figure in %, leaving out any unit text.

Use the examples below as a reference point.
COc1cc(Br)c(CCNCc2cccc(C)c2O)cc1OC [(43)]: 75.4
COc1cc(Br)cc(OC)c1CCNCc1cccc(C)c1O [(42)]: 78.1
COc1cc(OC)c(OC)cc1CCNCc1cccc2c1CCC2 [(51)]: 52.5
COc1cc(CCNCc2cccc(C)c2O)cc(OC)c1Br [(44)]: 80.2
COc1cc(Br)ccc1CCNCc1cccc2ccccc12 [(36)]: 76

Next:
Prompt: Please look up its Emax: COc1cc(Br)c(Br)c(OC)c1CCNCc1cccc(C)c1O [(45)]
Response: 81

###

Listed next: entries and their corresponding Emax.
- TESTED ON: 5-HT2C (Homo sapiens, UniProt P28335)
- EXPERIMENT DESCRIPTION: Ca2+ flux assay, 5-HT2C
- Assay type: cell-based
- Parameters: expressed in transfected cells
- EXPERIMENTAL CONDITIONS: read-out: 5-HT2C Emax % 5-HT
Give the number; % is assumed, so skip it.

Prompt: Field: Emax (5-HT2C (Homo sapiens, UniProt P28335)). Entry: CCOc1ccccc1CNCCc1cc(OC)c([N+](=O)[O-])cc1OC [25N-NBOEt (5)]
Response: 99

Prompt: // next record COc1cc([N+](=O)[O-])c(OC)cc1CCNCc1cccc2c1OC(F)(F)O2 [25N-NBMDF2 (13)]
Response: 49

Prompt: And what about the molecule COc1cc([N+](=O)[O-])c(OC)cc1CCNCc1ccc(F)cc1 [25N-NB-4-F (25)] ?
Response: 21

Prompt: // next record COc1cc([N+](=O)[O-])c(OC)cc1CCNCc1cccc(O)c1 [25N-NB-3-OH (21)]
Response: 53

Prompt: Next up: COc1cc([N+](=O)[O-])c(OC)cc1CCNCc1ccccc1C(F)(F)F [25N-NBCF3 (14)]
Response: 20

Prompt: COc1cc([N+](=O)[O-])c(OC)cc1CCNCc1cccc(C)c1 [25N-NB-3-Me (22)] ?
Response: 15

Prompt: Next entry: COc1cc([N+](=O)[O-])c(OC)cc1CCNCc1ccccc1O [25N-NBOH (3)]
Response: 100

Prompt: Also need COc1cc([N+](=O)[O-])c(OC)cc1CCNCc1ccccc1C [25N-NBMe (6)] , thanks.
Response: 89

###

- TESTED ON: 5-HT1D (Homo sapiens, UniProt P28221)
- Sequence (P28221 whole entry, species assumed): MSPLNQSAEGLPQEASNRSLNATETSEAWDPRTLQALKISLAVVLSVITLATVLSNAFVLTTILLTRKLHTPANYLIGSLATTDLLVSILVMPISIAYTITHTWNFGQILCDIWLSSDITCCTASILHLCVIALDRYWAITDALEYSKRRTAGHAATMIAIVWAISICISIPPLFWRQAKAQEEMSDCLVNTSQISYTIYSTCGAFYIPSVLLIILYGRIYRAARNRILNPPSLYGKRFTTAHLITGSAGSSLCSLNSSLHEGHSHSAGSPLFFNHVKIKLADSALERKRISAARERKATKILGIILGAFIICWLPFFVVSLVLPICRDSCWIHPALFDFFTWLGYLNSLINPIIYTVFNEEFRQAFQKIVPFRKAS
- EXPERIMENT DESCRIPTION: Competitive radioligand binding (NIMH PDSP)
ENDPOINT LABEL: pKi
Give only the number. pKi is defined as minus log10 of concentration in molar units.

COc1cc([N+](=O)[O-])c(OC)cc1CCNCc1cccc2ccccc12 [25N-N-1-Nap (16)]: 6.06

Now turn to the next compound.
Prompt: Any idea what its pKi is? The compound is COc1cc([N+](=O)[O-])c(OC)cc1CCNCc1cccc(C)c1 [25N-NB-3-Me (22)]
Response: 6.03

###

- TESTED ON: UniProt P41595
- Sequence (P41595 whole entry): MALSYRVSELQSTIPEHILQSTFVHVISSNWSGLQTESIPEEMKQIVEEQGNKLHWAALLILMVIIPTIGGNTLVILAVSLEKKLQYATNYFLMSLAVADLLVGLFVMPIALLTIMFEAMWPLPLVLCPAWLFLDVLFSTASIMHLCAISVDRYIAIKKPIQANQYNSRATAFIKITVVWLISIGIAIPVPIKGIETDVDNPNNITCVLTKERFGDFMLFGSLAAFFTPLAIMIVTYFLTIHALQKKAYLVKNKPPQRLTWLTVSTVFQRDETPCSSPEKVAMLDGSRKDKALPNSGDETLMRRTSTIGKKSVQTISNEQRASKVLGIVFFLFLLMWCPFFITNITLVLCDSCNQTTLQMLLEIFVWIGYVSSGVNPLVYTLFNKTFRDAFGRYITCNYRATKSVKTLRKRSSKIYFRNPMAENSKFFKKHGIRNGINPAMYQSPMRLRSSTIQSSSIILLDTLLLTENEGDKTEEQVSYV
- EXPERIMENT DESCRIPTION: BRET Gq dissociation, 5-HT2B
- Assay type: cell-based
- Parameters: expressed in transfected cells; host or cells: HEK293T, transient
- Experimental: After at least 18-24 hours, transfected cells were plated in poly-lysine coated 96-well white clear bottom cell culture plates in DMEM containing 1% dialyzed FBS at a density of 25-40,000 cells in 200 μL per well and incubated overnight. […] Fifteen minutes before reading, 10 μL of the RLuc substrate, either coelenterazine h for β-Arrestin recruitment BRET^1 or coelenterazine 400a for Gq dissociation BRET^2 (Prolume/Nanolight, 5 μM final concentration) was addedper well. […]
ENDPOINT LABEL: 5-HT2B Gq Dissociation (BRET) EMAX ± SEM (%5-HT)

These recorded examples may help you get a feel for the data.
COc1cc(CCN)c(OC)cc1I [Compound 2C-I, reference compound]: 101.0 ± 2.1 %5-HT
COc1cc(OC)c(OC)cc1CCNCc1cccc2ncccc12: No activity
COc1cc(CCNCc2cccc3ccccc23)cc(OC)c1Br: No activity
COc1cc(Br)c(CCNCc2cccc(C)c2O)cc1OC: No activity
COc1cc(Br)c(Br)c(OC)c1CCNCc1cccc(C)c1O: No activity

Consider the additional compound presented here.
Prompt: Which 5-HT2B Gq Dissociation (BRET) EMAX ± SEM (%5-HT) is listed for COc1cc(OC)c(OC)cc1CCNCc1cccc2ccccc12 ?
Response: No activity

###

- TESTED ON: 5-HT2A (Homo sapiens, UniProt P28223)
- Sequence (P28223 whole entry): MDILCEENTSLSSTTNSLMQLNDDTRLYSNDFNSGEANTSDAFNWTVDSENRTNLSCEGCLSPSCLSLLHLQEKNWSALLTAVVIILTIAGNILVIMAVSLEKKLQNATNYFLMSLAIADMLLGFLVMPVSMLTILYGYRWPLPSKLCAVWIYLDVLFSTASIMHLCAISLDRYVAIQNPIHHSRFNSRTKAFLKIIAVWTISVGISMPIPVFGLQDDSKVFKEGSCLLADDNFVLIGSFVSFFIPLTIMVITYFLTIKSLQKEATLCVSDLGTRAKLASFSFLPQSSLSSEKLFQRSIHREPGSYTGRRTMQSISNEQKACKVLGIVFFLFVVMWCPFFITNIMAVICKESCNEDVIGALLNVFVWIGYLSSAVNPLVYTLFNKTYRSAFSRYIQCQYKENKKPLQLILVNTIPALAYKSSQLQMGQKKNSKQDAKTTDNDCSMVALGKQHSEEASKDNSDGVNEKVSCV
- EXPERIMENT DESCRIPTION: cell-based
- Set-up: expressed in transfected cells; host or cells: HEK293T, transient
- EXPERIMENTAL CONDITIONS: read-out: 5-HT2A Gq Emax (% 5-HT), BRET, mean ± SEM
- Description: After at least 18-24 hours, transfected cells were plated in poly-lysine coated 96-well white clear bottom cell culture plates in DMEM containing 1% dialyzed FBS at a density of 25-40,000 cells in 200 μL per well and incubated overnight. […] Fifteen minutes before reading, 10 μL of the RLuc substrate, either coelenterazine h for β-Arrestin recruitment BRET^1 or coelenterazine 400a for Gq dissociation BRET^2 (Prolume/Nanolight, 5 μM final concentration) was addedper well. […]
Here the recorded Emax is given for each entry.
Please give a number only; it is taken to be in %.

COc1cc(OC)c(OC)cc1CCNCc1cccc(C(C)(C)C)c1 [(71)]: 38.6
COc1cc(OC)c(OC)cc1CCNCc1cccc2cnccc12 [(56)]: 64.1

Prompt: API: value(readout= Emax, system= 5-HT2A (Homo sapiens, UniProt P28223), query= COc1cc([N+](=O)[O-])c(OC)cc1CCNCc1ccccc1OC [25N-NBOMe (4)] )
Response: 98

Prompt: And what about the compound COc1cc(Cl)ccc1CCNCc1cccc2ccccc12 [(34)] ?
Response: 25.2

Prompt: And what about the compound COc1cc2c(cc1CCNCc1cccc3ccccc13)OCO2 [(39)] ?
Response: 26.4

###

Recorded Emax by entry
- TESTED ON: 5-HT2A (Homo sapiens)
- EXPERIMENT DESCRIPTION: cell-based
- Set-up: expressed in transfected cells; host or cells: HEK293T, transient
- EXPERIMENTAL CONDITIONS: read-out: 5-HT2A β-arrestin Emax (% 5-HT), BRET, mean ± SEM
Quick reminder: number only, in %, skip the unit.

COc1cc(Br)cc(OC)c1CCNCc1cccc2ccccc12 [(32)]: 85.5
COc1cc(OC)c(OC)cc1CCNCc1cccc(F)c1F [(65)]: 101
COc1cc(Br)ccc1CCNCc1cccc2ccccc12 [(36)]: 80.2

Prompt: Which Emax is listed for COc1cc(CCNC2Cc3ccccc3C2)c(OC)cc1C [(85)] ?
Response: 70.9

###

- TESTED ON: 5-HT2A (Homo sapiens)
- EXPERIMENT DESCRIPTION: cell-based
- Set-up: expressed in transfected cells; host or cells: HEK293T, transient
- EXPERIMENTAL CONDITIONS: BRET, mean ± SEM
ENDPOINT LABEL: 5-HT2A Gq dissociation pEC50
Just the number, please.

COc1cc(CCN)c(OC)cc1Br [Compound 2C-B, reference compound]: 8.92
CN(C)CCc1c[nH]c2ccccc12 [DMT, reference compound]: 7.17

Now for a further molecule.
Prompt: Quick check: 5-HT2A Gq dissociation pEC50 of COc1cc(CCN)c(OC)cc1I [Compound 2C-I, reference compound] ?
Response: 8.83

###

- TESTED ON: 5-HT2C (Homo sapiens, UniProt P28335)
- EXPERIMENT DESCRIPTION: BRET Gq dissociation, 5-HT2C
- Assay type: cell-based
- Parameters: expressed in transfected cells; host or cells: HEK293T, transient
- EXPERIMENTAL CONDITIONS: read-out: 5-HT2C Gq Dissociation (BRET) EMAX ± SEM (%5-HT)
Criterion: Emax strictly under 80%. Met: met. Not met: not met.

Solved cases below.
COc1cc(Cl)ccc1CCNCc1cccc2ccccc12 [(34)]: met
COc1cc(OC)c(OC)cc1CCNCc1cccc2c1CCCC2 [(52)]: met
COc1cc([N+](=O)[O-])c(OC)cc1CCNCc1ccccc1-c1ccccc1 [25N-NBPh (17)]: not met

Prompt: Regarding COc1cc2c(cc1CCNCc1cccc3ccccc13)OCO2 [(39)] , kindly confirm whether its Emax is beneath 80%.
Response: not met
